- Test system: HCC-2998 colon
- assay-overview: NCI tumour cell line growth inhibition, 48 h
The reader will find reported TGI values listed item by item below.

[
  {
    "molecule": "COc1ccc(C[C@H]2COC(=O)[C@@H]2Cc2ccc(Br)cc2)cc1OC",
    "TGI": "> 100 µM"
  },
  {
    "molecule": "CCOC(=O)C1=C(C)NC2SC(=O)/C(=C\\c3cccc(Cl)c3)N2C1c1ccccc1 (centres undefined)",
    "TGI": "> 100 µM"
  },
  {
    "molecule": "Cc1cc(NS(=O)(=O)c2ccc(NO)cc2)no1",
    "TGI": "> 100 µM"
  },
  {
    "molecule": "N#Cc1ccc(C2OCC3CC=CCC3CO2)cc1 (centres undefined)",
    "TGI": "> 100 µM"
  },
  {
    "molecule": "COc1ccc2nc3ccc(OC)cc3c(S(=O)Cc3ccccc3)c2c1 (centres undefined)",
    "TGI": "38.4 µM"
  },
  {
    "molecule": "O=[N+]([O-])C(C(Cl)=C(Cl)Cl)=C(N1CCCCC1)N1CCCCC1",
    "TGI": "> 100 µM"
  },
  {
    "molecule": "CCCCCCC(=O)OC[n+]1ccc(-c2c(COC(=O)NC(C)C)c(COC(=O)NC(C)C)c3n2CCC3)cc1",
    "TGI": "> 100 µM"
  },
  {
    "molecule": "CC1=C2CC[C@@]3(C)C(=CCC3O)C2(C)CCC1=O (some centres undefined)",
    "TGI": "> 100 µM"
  },
  {
    "molecule": "CC(C)(C)OC(=O)N(O)CCCn1cnc2c(NC3CC3)ncnc21",
    "TGI": "> 100 µM"
  },
  {
    "molecule": "COc1ccc(N=Nc2ccc(O)c(=O)cc2)cc1",
    "TGI": "> 100 µM"
  },
  {
    "molecule": "COc1ccccc1CNCCCN1C(=O)c2ccc3c4c(ccc(c24)C1=O)C(=O)N(CCCNCCCCNCCCN)C3=O",
    "TGI": "1.06 µM"
  },
  {
    "molecule": "COc1cc2c(cc1NC(=O)c1ccccc1)c1c(n2S(=O)(=O)c2ccccc2)CCN(S(=O)(=O)c2ccccc2)C1",
    "TGI": "> 100 µM"
  },
  {
    "molecule": "CC(C)N(CC(=O)O)CC(=O)O",
    "TGI": "> 100 µM"
  },
  {
    "molecule": "CCC1(c2ccc(OC)c(OC)c2)CCN(S(=O)(=O)c2ccc(C)cc2)C1 (centres undefined)",
    "TGI": "> 100 µM"
  },
  {
    "molecule": "CC1(C)N=C(N)N=C(N)N1c1ccc(OCC(=O)Nc2ccc(S(=O)(=O)F)cc2Cl)c(Cl)c1",
    "TGI": "> 100 µM"
  },
  {
    "molecule": "CC(C)n1cc(-c2ccc3c(c2)N(C)CC3)c2c(NS(=O)(=O)c3ccn(C)n3)ccnc21",
    "TGI": "> 100 µM"
  },
  {
    "molecule": "CCCCCCCCCCCCCCCC(=O)NS(=O)(=O)OC[C@H]1O[C@@H](n2cnc3c(N)ncnc32)[C@H](O)[C@@H]1O",
    "TGI": "< 0.038 µM"
  },
  {
    "molecule": "NC(N)=N/N=C/c1c(-c2ccc(Cl)c([N+](=O)[O-])c2)nc2sccn12",
    "TGI": "2.94 µM"
  },
  {
    "molecule": "CC[C@]12C=CCN3CC[C@@]4(c5ccc(OC)cc5N(C)[C@H]4[C@@](O)(C(=O)OC)[C@@H]1OC(=O)CCC(=O)O[C@H]1CC[C@H]4[C@@H]5CCC6=CC(=O)CC[C@@H]6[C@H]5CC[C@]14C)[C@@H]32",
    "TGI": "> 50 µM"
  }
]
